# reported chromatographic logP; entries follow
Assay: Chrom LogP of maytansinoid conjugates
Assay type: physicochemical
Where a SMILES comes first, the peptide text is derived from it. Bridges are numbered along the chain shown (N, C = ends). [ ]: non-standard residue; d: D form. The star is where a group is joined. X1 = COc1cc2cc(c1Cl)N(C)C(=O)C[C@H](OC(=O)[C@H](C)N(C)C(=O)CCS*)[C@]1(C)O[C@H]1[C@H](C)[C@@H]1C[C@@](O)(NC(=O)O1)[C@H](OC)/C=C/C=C(\C)C2
readout name: chromatographic logP

>  <compound>
COc1cc2cc(c1Cl)N(C)C(=O)C[C@H](OC(=O)[C@H](C)N(C)C(=O)CCSSC[C@H](NC(=O)[C@@H]1CSSC[C@H](NC(=O)[C@@H](Cc3ccccc3)NC(=O)NCc3ccc(C(F)(F)F)cc3)C(=O)N[C@@H](Cc3ccc(O)cc3)C(=O)N[C@H](Cc3c[nH]c4ccccc34)C(=O)N[C@@H](CCCCN)C(=O)N[C@@H]([C@@H](C)O)C(=O)N1)C(N)=O)[C@]1(C)O[C@H]1[C@H](C)[C@@H]1C[C@@](O)(NC(=O)O1)[C@H](OC)/C=C/C=C(\C)C2 [Conjugate 37]

>  <readout name>
chromatographic logP

>  <result>
3.07

$$$$
>  <compound>
COc1cc2cc(c1Cl)N(C)C(=O)C[C@H](OC(=O)[C@H](C)N(C)C(=O)CCSSC[C@H](NC(=O)[C@@H]1CSSC[C@H](NC(=O)[C@@H](Cc3ccccc3)NC(=O)Nc3cc(C(F)(F)F)cc(C(F)(F)F)c3)C(=O)N[C@@H](Cc3ccc(O)cc3)C(=O)N[C@H](Cc3c[nH]c4ccccc34)C(=O)N[C@@H](CCCCN)C(=O)N[C@@H]([C@@H](C)O)C(=O)N1)C(N)=O)[C@]1(C)O[C@H]1[C@H](C)[C@@H]1C[C@@](O)(NC(=O)O1)[C@H](OC)/C=C/C=C(\C)C2 [Conjugate 38]

>  <readout name>
chromatographic logP

>  <result>
3.47

$$$$
>  <compound>
COc1cc2cc(c1Cl)N(C)C(=O)C[C@H](OC(=O)[C@H](C)N(C)C(=O)CCSSC[C@H](NC(=O)[C@@H]1CSSC[C@H](NC(=O)[C@H](N)Cc3c[nH]c4ccccc34)C(=O)N[C@@H](Cc3ccc(O)cc3)C(=O)N[C@H](Cc3c[nH]c4ccccc34)C(=O)N[C@@H](CCCCN)C(=O)N[C@@H]([C@@H](C)O)C(=O)N1)C(N)=O)[C@]1(C)O[C@H]1[C@H](C)[C@@H]1C[C@@](O)(NC(=O)O1)[C@H](OC)/C=C/C=C(\C)C2 [Conjugate 24] (H-[dW]CY[dW]KTCC(X1)-NH2; disulfide 2-7)

>  <readout name>
chromatographic logP

>  <result>
2.03

$$$$
>  <compound>
COc1cc2cc(c1Cl)N(C)C(=O)C[C@H](OC(=O)[C@H](C)N(C)C(=O)CCSSC[C@H](NC(=O)[C@@H]1CSSC[C@H](NC(=O)[C@@H](Cc3ccccc3)NC(=O)NCCC(c3ccccc3)c3ccccc3)C(=O)N[C@@H](Cc3ccc(O)cc3)C(=O)N[C@H](Cc3c[nH]c4ccccc34)C(=O)N[C@@H](CCCCN)C(=O)N[C@@H]([C@@H](C)O)C(=O)N1)C(N)=O)[C@]1(C)O[C@H]1[C@H](C)[C@@H]1C[C@@](O)(NC(=O)O1)[C@H](OC)/C=C/C=C(\C)C2 [Conjugate 41]

>  <readout name>
chromatographic logP

>  <result>
3.29

$$$$
>  <compound>
COc1cc2cc(c1Cl)N(C)C(=O)C[C@H](OC(=O)[C@H](C)N(C)C(=O)CCSSC(C)(C)[C@H](NC(=O)[C@@H]1CSSC[C@H](NC(=O)[C@@H](Cc3ccccc3)NS(C)(=O)=O)C(=O)N[C@@H](Cc3ccc(O)cc3)C(=O)N[C@H](Cc3c[nH]c4ccccc34)C(=O)N[C@@H](CCCCN)C(=O)N[C@@H]([C@@H](C)O)C(=O)N1)C(N)=O)[C@]1(C)O[C@H]1[C@H](C)[C@@H]1C[C@@](O)(NC(=O)O1)[C@H](OC)/C=C/C=C(\C)C2 [Conjugate 10]

>  <readout name>
chromatographic logP

>  <result>
2.66

$$$$
>  <compound>
COc1cc2cc(c1Cl)N(C)C(=O)C[C@H](OC(=O)[C@H](C)N(C)C(=O)CCSSCCNC(=O)[C@@H](NC(=O)[C@@H]1CSSC[C@H](NC(=O)[C@@H](Cc3ccccc3)NC(=O)NC3CCCCC3)C(=O)N[C@@H](Cc3ccc(O)cc3)C(=O)N[C@H](Cc3c[nH]c4ccccc34)C(=O)N[C@@H](CCCCN)C(=O)N[C@@H]([C@@H](C)O)C(=O)N1)[C@@H](C)O)[C@]1(C)O[C@H]1[C@H](C)[C@@H]1C[C@@](O)(NC(=O)O1)[C@H](OC)/C=C/C=C(\C)C2 [Conjugate 20]

>  <readout name>
chromatographic logP

>  <result>
3.1

$$$$
>  <compound>
COc1cc2cc(c1Cl)N(C)C(=O)C[C@H](OC(=O)[C@H](C)N(C)C(=O)CCSSC[C@H](NC(=O)[C@@H]1CSSC[C@H](NC(=O)[C@@H](Cc3ccccc3)NC(=O)NCCC(F)(F)C(F)(F)C(F)(F)C(F)(F)C(F)(F)C(F)(F)C(F)(F)C(F)(F)F)C(=O)N[C@@H](Cc3ccc(O)cc3)C(=O)N[C@H](Cc3c[nH]c4ccccc34)C(=O)N[C@@H](CCCCN)C(=O)N[C@@H]([C@@H](C)O)C(=O)N1)C(N)=O)[C@]1(C)O[C@H]1[C@H](C)[C@@H]1C[C@@](O)(NC(=O)O1)[C@H](OC)/C=C/C=C(\C)C2 [Conjugate 40]

>  <readout name>
chromatographic logP

>  <result>
4

$$$$
>  <compound>
COc1cc2cc(c1Cl)N(C)C(=O)C[C@H](OC(=O)[C@H](C)N(C)C(=O)CCSSC(C)(C)[C@H](NC(=O)[C@@H]1CSSC[C@H](NC(=O)[C@@H](Cc3ccccc3)NC(=O)NCc3ccccc3)C(=O)N[C@@H](Cc3ccc(O)cc3)C(=O)N[C@H](Cc3c[nH]c4ccccc34)C(=O)N[C@@H](CCCCN)C(=O)N[C@@H]([C@@H](C)O)C(=O)N1)C(N)=O)[C@]1(C)O[C@H]1[C@H](C)[C@@H]1C[C@@](O)(NC(=O)O1)[C@H](OC)/C=C/C=C(\C)C2 [Conjugate 7]

>  <readout name>
chromatographic logP

>  <result>
2.6

$$$$

###

Assay: Chrom LogP of maytansinoid conjugates
Assay type: physicochemical

>  <molecule>
CCNC(=O)[C@@H](NC(=O)[C@@H]1CSSC[C@H](NC(=O)[C@@H](Cc2ccccc2)NCCCSSCCC(=O)N(C)[C@@H](C)C(=O)O[C@@H]2CC(=O)N(C)c3cc(cc(OC)c3Cl)C/C(C)=C/C=C/[C@@H](OC)[C@@]3(O)C[C@H](OC(=O)N3)[C@@H](C)[C@@H]3O[C@@]23C)C(=O)N[C@@H](Cc2ccc(O)cc2)C(=O)N[C@H](Cc2c[nH]c3ccccc23)C(=O)N[C@@H](CCCCN)C(=O)N[C@@H]([C@@H](C)O)C(=O)N1)[C@@H](C)O [Conjugate 50]

>  <chromatographic logP>
2.32

$$$$
>  <molecule>
CCCC(=O)N[C@H](Cc1ccccc1)C(=O)N[C@H]1CSSC[C@@H](C(=O)N[C@H](C(=O)NCCSSCCC(=O)N(C)[C@@H](C)C(=O)O[C@H]2CC(=O)N(C)c3cc(cc(OC)c3Cl)C/C(C)=C/C=C/[C@@H](OC)[C@@]3(O)C[C@H](OC(=O)N3)[C@@H](C)[C@@H]3O[C@@]23C)[C@@H](C)O)NC(=O)[C@H]([C@@H](C)O)NC(=O)[C@H](CCCCN)NC(=O)[C@@H](Cc2c[nH]c3ccccc23)NC(=O)[C@H](Cc2ccc(O)cc2)NC1=O [Conjugate 19]

>  <chromatographic logP>
2.88

$$$$

###

Assay: Ligand charge of maytansinoid conjugates
Type: physicochemical

>  <compound>
COc1cc2cc(c1Cl)N(C)C(=O)C[C@H](OC(=O)[C@H](C)N(C)C(=O)CCSSCCNC(=O)[C@@H](NC(=O)[C@@H]1CSSC[C@H](NC(=O)[C@@H](Cc3ccccc3)NC(=O)NC3CCCCC3)C(=O)N[C@@H](Cc3ccc(O)cc3)C(=O)N[C@H](Cc3c[nH]c4ccccc34)C(=O)N[C@@H](CCCCN)C(=O)N[C@@H]([C@@H](C)O)C(=O)N1)[C@@H](C)O)[C@]1(C)O[C@H]1[C@H](C)[C@@H]1C[C@@](O)(NC(=O)O1)[C@H](OC)/C=C/C=C(\C)C2 [Conjugate 20]

>  <Ligand charge>
+1

$$$$
>  <compound>
CCNC(=O)N[C@H](Cc1ccccc1)C(=O)N[C@H]1CSSC[C@@H](C(=O)N[C@H](C(N)=O)C(C)(C)SSCCC(=O)N(C)[C@@H](C)C(=O)O[C@H]2CC(=O)N(C)c3cc(cc(OC)c3Cl)C/C(C)=C/C=C/[C@@H](OC)[C@@]3(O)C[C@H](OC(=O)N3)[C@@H](C)[C@@H]3O[C@@]23C)NC(=O)[C@H]([C@@H](C)O)NC(=O)[C@H](CCCCN)NC(=O)[C@@H](Cc2c[nH]c3ccccc23)NC(=O)[C@H](Cc2ccc(O)cc2)NC1=O [Conjugate 13]

>  <Ligand charge>
+1

$$$$
